Reference source: patent US10329277B2

I'd be grateful if you could share measured IC50 for these entries.
system: Human non-small cell lung cancer cells NCI-H1975; experiment: Cell proliferation assay, NCI-H1975 (CellTiter-Glo); format: cell-based; conditions: NCI-H1975, treatment 72 hours, read-out: Cell viability (IC50 nM) NCI-H1975
Structures can show the parent of a compound that is named as a salt.
Express it in nM; write the number only.

Request: Given C=CC(=O)Nc1cc(Nc2nccc(-n3c(=O)n(C)c4cc(Cl)ccc43)n2)c(OC)cc1N(C)CCN(C)C [Example 14, Hydrochloride] , state its recorded IC50.
Response: 4.56

Request: Name the reported IC50 value associated with the molecule C=CC(=O)Nc1cc(Nc2nccc(-n3c(=O)[nH]c4cc(F)ccc43)n2)c(OC)cc1N(C)CCN(C)C [Example 11, Hydrochloride]
Response: 3.7

Request: Which IC50 value belongs to C=CC(=O)Nc1cc(Nc2nccc(-n3c(=O)n(C)c4ccccc43)n2)c(OC)cc1N(C)CCN(C)C [Example 1, Hydrochloride] ?
Response: 2.76

Request: # IC50 lookup, item C=CC(=O)Nc1cc(Nc2nccc(-n3c(=O)[nH]c4ccccc43)n2)c(OC)cc1N(C)CCN(C)C [Example 2, Hydrochloride]
Response: 0.96

###

experiment: Pharmacokinetic assay in rats; format: in vivo; conditions: male, rat, plasma, po, 10 mg/kg, PO 10 mg/kg single dose
Recorded Endpoint: AUC(0-inf) (ng·h/mL)
State the answer as a number, implicitly in ng·h/mL.

Request: Record request: AUC(0-inf) value, item C=CC(=O)Nc1cc(Nc2nccc(-n3c(=O)n(C)c4ccccc43)n2)c(OC)cc1N(C)CCN(C)C
Response: 401

###

system: Human non-small cell lung cancer cells NCI-H1975; assay: Cell proliferation assay, NCI-H1975 (CellTiter-Glo); format: cell-based; settings: NCI-H1975, treatment 72 hours, read-out: Cell viability (IC50 nM) NCI-H1975
Where a name gives a salt, the structure may show the parent alone.
Assign IC50 to each entry below.
Output spec: scalar in nM, unitless text.

Request: GET /values?readout=IC50&system=Human non-small cell lung cancer cells NCI-H1975&item= C=CC(=O)Nc1cc(Nc2ncc(Cl)c(-n3c(=O)[nH]c4ccccc43)n2)c(OC)cc1N(C)CCN(C)C [Example 4, Hydrochloride]
Response: 2.87

Request: Give the reported IC50 for C=CC(=O)Nc1cc(Nc2nccc(-n3c(=O)oc4ccccc43)n2)c(OC)cc1N(C)CCN(C)C [Example 5, Hydrochloride] (system: Human non-small cell lung cancer cells NCI-H1975).
Response: 17

Request: So what IC50 did C=CC(=O)Nc1cc(Nc2nccc(-n3c(=O)n(C)c4ccccc43)n2)c(OC)cc1N(C)CCNC [Example 12, Hydrochloride] get with Human non-small cell lung cancer cells NCI-H1975?
Response: 3.17

Request: Give the reported IC50 for C=CC(=O)Nc1cc(Nc2nccc(-n3c(=O)n(C)c4cc(F)ccc43)n2)c(OC)cc1N(C)CCN(C)C [Example 10, Hydrochloride] (system: Human non-small cell lung cancer cells NCI-H1975).
Response: 1.46

Request: State its IC50 on Human non-small cell lung cancer cells NCI-H1975: C=CC(=O)Nc1cc(Nc2nccc(-c3cn(C)c4ccccc34)n2)c(OC)cc1N(C)CCN(C)C [AZD9291, reference compound]
Response: 9.08

Request: Please state recorded IC50 (tested on Human non-small cell lung cancer cells NCI-H1975) of C=CC(=O)Nc1cc(Nc2nccc(-n3c(=O)n(C)c4cc(Br)ccc43)n2)c(OC)cc1N(C)CCN(C)C [Example 15, Hydrochloride]
Response: 6.83
